System: GB4
Assay procedure: qHTS profiling for inhibitors of Plasmodium falciparum proliferation (AID 504749);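 also: 0% = DMSO vehicle and full inhibition = artemisinin control; nearly all actives have a fitted effect of over 60% in size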
Condition info: P. falciparum in erythrocytes, SYBR Green DNA, 72 h; series mostly up to 28.7 µM
Results filed as inconclusive are left out. Active and inactive are the calls of the source. Calls follow the shape of the dose curve; as a rule, active = well fitted inhibition curve with a large enough effect; inconclusive = small, poorly fitted or top-dose-only effect; inactive = flat fitted curve, though single readings scatter.
# output must be one of class 1 for active, class 0 for inactive

See these solved cases before continuing.
Compound	Target system	Class label
CNC(=O)C[C@@H](N)C(=O)N[C@@H](C(=O)N[C@@H]1C(=O)N2[C@@H]1SC(C)(C)[C@@H]2C(=O)O)c1ccc(O)cc1	GB4	class 0
O=S(=O)(O)CC(S)CS (stereo not drawn)	GB4	class 0
CCCCCCCCCCCCCCCCCC[N+](C)(C)CCC[Si](OC)(OC)OC	GB4	class 0

Inquiry: What did the test return for CC(C)CCCC(C)NC(C)C (stereo not drawn) ?
Reply text: class 0

Inquiry: What did the test return for O=C(O)Cc1cc(I)c(Oc2ccc(O)c(I)c2)c(I)c1 ?
Reply text: class 0

Inquiry: What did the test return for FC(F)(F)C(F)(F)C(F)(F)C(F)(F)C(F)(F)C(F)(F)F ?
Reply text: class 0

Inquiry: What did the test return for C[C@]12CC[C@@H]3c4ccc(OC(=O)c5ccccc5)cc4CC[C@H]3[C@@H]1CC[C@@H]2O ?
Reply text: class 0

Origin of the recorded values: PubChem BioAssay (NCATS)
